Assay Notes: small-molecule microarray binders of probe aXIP, primary screen, biochemical, NeuroSMM set, 635/667 nm fluorescence (AID 1119);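 further: probe is the protein aXip251-270 applied at 1 µg/mL to compound-printed slides; binding of probe to printed compounds measured as 667 nm fluorescence plus signal to noise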
Condition Info: higher = more signal, called active from +8 up or from −8 down
Active and inactive are the calls of the source.
Readout Kind: composite Z-score

Lookup result for `COCCOC(=O)N1C(=O)[C@@]2(c3cc(C#Cc4ccc(OC)cc4)ccc31)[C@H](C(=O)NC[C@H](O)c1ccccc1)[C@H]1C(=O)O[C@H](c3ccccc3)[C@H](c3ccccc3)N1[C@@H]2c1ccc(O)cc1` ; measured composite Z-score: 0.552 (inactive)

Lookup result for `C=C(C(=O)CC[C@H](OC(C)=O)c1cccc(OCCO)c1)C(C)C` ; measured composite Z-score: 0.562 (inactive)

Lookup result for `CCC[C@@H]1C[C@@]1(CCC)[C@@H](NP(=O)(c1ccccc1)c1ccccc1)c1ccc(Cl)cc1` ; measured composite Z-score: -1.49 (inactive)

Lookup result for `CC(C)C(=C=CC[C@H](O)c1ccc(OCCO)cc1)C[C@H](O)c1cc(Cl)cc(Cl)c1O` ; measured composite Z-score: 0.32 (inactive)

Lookup result for `COCCCNC(=O)[C@]1(CCC(=O)OC(C)(C)C)N=C(c2ccc(OCCCO)cc2)O[C@@H]1c1ccccc1` ; measured composite Z-score: 0.977 (inactive)

Lookup result for `C=CCOC(=O)[C@@H]1[C@H]2C(=O)O[C@H](c3ccccc3)[C@H](c3ccccc3)N2[C@H](c2ccc(OCCOC(=O)[C@H]3C[C@H]4C(=O)N[C@@H](CC(C)C)C(=O)N4[C@H]3c3ccc(O)cc3)cc2)[C@@]12C(=O)Nc1ccc(I)cc12` ; measured composite Z-score: 0.761 (inactive)

Lookup result for `COc1ccc(C#Cc2ccc3c(c2)[C@]2(C(=O)N3)[C@H](C(=O)N3CCc4cc(OC)c(OC)cc4C3)[C@H]3C(=O)O[C@H](c4ccccc4)[C@H](c4ccccc4)N3[C@@H]2c2ccc(O)cc2)cc1` ; measured composite Z-score: 1.1 (inactive)

Lookup result for `C[C@@H]1ON(c2ccc(C(=O)OC(C)(C)C)cc2)[C@H](c2ccc(Br)cc2)[C@H]1C(=O)N1C(=O)OC[C@H]1Cc1ccccc1` ; measured composite Z-score: -0.359 (inactive)
